Entries and their Percentage (%) bound of compound to 14-3-3σ, APO 8h values follow.
# Target Desc: 14-3-3σ (Homo sapiens, UniProt P31947)
# Construct: The 14-3-3 σ isoform (full-length for mass spectrometry and fluorescence anisotropy assays, ΔC for crystallography); made in house; host or cells: E. coli Rosetta 2(DE3)pLysS, pPROEX HTb vector
# Sequence (P31947 whole entry, canonical isoform): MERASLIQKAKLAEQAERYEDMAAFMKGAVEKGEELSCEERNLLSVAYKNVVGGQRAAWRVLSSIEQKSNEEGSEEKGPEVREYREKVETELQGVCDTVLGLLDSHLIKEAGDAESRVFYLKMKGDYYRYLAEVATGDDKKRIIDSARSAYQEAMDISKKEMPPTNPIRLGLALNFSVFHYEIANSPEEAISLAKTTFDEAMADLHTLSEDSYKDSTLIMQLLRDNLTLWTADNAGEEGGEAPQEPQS
# Assay Summary: Mass spectrometry dose response, compound binding to 14-3-3σ in the absence of peptide (apo)
# Setup Conditions: 100 nM compound, 100 nM 14-3-3σ, 8h
Property: Percentage (%) bound of compound to 14-3-3σ, APO 8h

NC1CCC(Oc2ccc(Cl)cc2)(C(=O)N2CCC(CNC(=O)CCl)CC2)CC1 (centres unmarked): 0.9
O=C(CCl)NCC1CCN(C(=O)C2(Nc3ccc(Cl)cc3)CCCC2)CC1: 0
O=C(CCl)NCC1CC2(CCN(C(=O)C3(Nc4ccc(Cl)cc4)CCOCC3)CC2)C1: 1.0
CC(C)(Nc1ccc(Cl)cc1)C(=O)N1CCC(CNC(=O)CCl)CC1: 0
CC1CC(Nc2ccc(Cl)cc2)(C(=O)NCC2CC3(CCN(C(=O)CCl)CC3)C2)CC(C)O1 (centres unmarked): 2.9
O=C(CCl)NCC1CCN(C(=O)C2(Nc3ccc(Cl)cc3)CCNCC2)CC1: 2.2
Cl.NC1CCC(Nc2ccccc2)(C(=O)N2CCC(CNC(=O)CCl)CC2)CC1 (centres unmarked): 0
CC(C)(Oc1ccc(Cl)cc1)C(=O)N1CCC(NC(=O)CCl)CC1: 0
